Test system: arrhythmia in guinea-pigs after infusion of ouabain
Assay details: Ouabain-induced arrhythmia in guinea-pigs
Assay conditions: O-value (initial); group dosed 3 mg/kg iv
Measured quantity: HR ± SE, O-value (beats/min.)
Lab book: enter the figure in beats/min., no units written.

Recorded HR ± SE, O-value, per entry:
Compound: CCNS(=O)(=O)CCN1C(=O)c2ccccc2C1=O [2-Phthalimidoethanesulfone ethylamide]
HR ± SE, O-value (beats/min.): 332
//
Compound: CC(=O)NS(=O)(=O)CCN1C(=O)c2ccccc2C1=O [2-Phthalimidoethanesulfonyl acetamide, 2-phthalimidoethanesulfonyl acetamide]
HR ± SE, O-value (beats/min.): 260
//
Compound: CC(C)NS(=O)(=O)CCN1C(=O)c2ccccc2C1=O
HR ± SE, O-value (beats/min.): 321
//
Compound: CCCNS(=O)(=O)CCN1C(=O)c2ccccc2C1=O [2-Phthalimidoethanesulfone n-propylamide]
HR ± SE, O-value (beats/min.): 286

With arrhythmia in guinea-pigs after infusion of ouabain as the test system, CCCCNS(=O)(=O)CCN1C(=O)c2ccccc2C1=O [2-Phthalimidoethanesulfone n-butylamide] showed HR ± SE, O-value of 210
